system: 786-0 renal; assay: NCI-60 one-dose screen, 48 h; details: 10 µM unless noted
The panel holds about 83,000 compounds, 20% with a hit somewhere; the sample as a whole holds those more often. Calls of active or inactive are those of the source. The calls were made as follows: active = growth percent below 10; inactive = the rest.
Labels: 1.0 for active, 0.0 for inactive

[
  {
    "MOLECULE": "Nc1nc(-c2cc3c(cc2Cl)NC(=O)/C3=C/c2ccccc2)cs1",
    "TARGET OR SYSTEM": "786-0 renal",
    "CATEGORY LABEL": 0.0
  },
  {
    "MOLECULE": "O=C(Cn1c2ccccc2c2ccncc21)N/N=C/c1cc(O)c(O)c(O)c1",
    "TARGET OR SYSTEM": "786-0 renal",
    "CATEGORY LABEL": 0.0
  },
  {
    "MOLECULE": "CC(C)(C)NCC(O)COc1c(Br)c(Br)c(Br)c2c1OC(C)(C)C2 (centres undefined)",
    "TARGET OR SYSTEM": "786-0 renal",
    "CATEGORY LABEL": 1.0
  },
  {
    "MOLECULE": "Cc1cc(-c2ccccc2)nc2ccccc12",
    "TARGET OR SYSTEM": "786-0 renal",
    "CATEGORY LABEL": 0.0
  }
]

---

tested on: SF-268 CNS; test: NCI-60 one-dose screen, 48 h; conditions: 10 µM unless noted
The panel holds about 83,000 compounds, 20% with a hit somewhere; the sample as a whole holds those more often. Calls of active or inactive are those of the source. Rule for the calls: active = growth percent below 10; inactive = the rest.
Outcome codes: active, inactive

[
  {
    "RECORD SMILES": "COc1ccc(-c2nn(-c3ccc(NC(=O)Nc4ccc(Cl)c(C(F)(F)F)c4)cc3)cc2-c2ccncc2)cc1Cl",
    "CATEGORY LABEL": "inactive"
  },
  {
    "RECORD SMILES": "O=[N+]([O-])c1cccc2cc(S(=O)(=O)O)ccc12",
    "CATEGORY LABEL": "inactive"
  },
  {
    "RECORD SMILES": "O=c1cc(Cl)[nH]c(=O)[nH]1",
    "CATEGORY LABEL": "inactive"
  },
  {
    "RECORD SMILES": "O=C(Nc1ccc(-n2ccc3c(NC(=O)c4ccccc4)nccc32)cc1)Nc1cccc(C(F)(F)F)c1",
    "CATEGORY LABEL": "inactive"
  },
  {
    "RECORD SMILES": "COc1ccc(-c2nn(-c3ccc(NC(=O)Nc4ccc(Cl)c(Cl)c4)cc3)cc2-c2ccncc2)cc1Cl",
    "CATEGORY LABEL": "inactive"
  },
  {
    "RECORD SMILES": "O=C(Nc1cccc(-n2ccc3c(NC(=O)c4ccccc4)nccc32)c1)Nc1ccc(Cl)c(C(F)(F)F)c1",
    "CATEGORY LABEL": "active"
  },
  {
    "RECORD SMILES": "COc1ccc(-c2nn(-c3ccc(NC(=O)c4cc(C(F)(F)F)cc(C(F)(F)F)c4)cc3)cc2-c2ccncc2)cc1Cl",
    "CATEGORY LABEL": "inactive"
  },
  {
    "RECORD SMILES": "COc1ccc(Cn2cc(COc3ccc4c5ccnc(C)c5n(CCCc5ccccc5)c4c3)nn2)cc1",
    "CATEGORY LABEL": "inactive"
  },
  {
    "RECORD SMILES": "CNCCCOc1c(Br)cc(CCNC(=O)/C(Cc2ccc(OC)c(Br)c2)=N/O)cc1Br",
    "CATEGORY LABEL": "inactive"
  },
  {
    "RECORD SMILES": "O=C(Nc1ccc(-n2ccc3c(NC(=O)c4ccccc4)nccc32)cc1)c1ccc(Cl)c(C(F)(F)F)c1",
    "CATEGORY LABEL": "inactive"
  },
  {
    "RECORD SMILES": "O=C(Nc1ccc(-n2ccc3c(NC(=O)c4ccccc4)ncnc32)cc1)Nc1ccc(Cl)c(C(F)(F)F)c1",
    "CATEGORY LABEL": "active"
  },
  {
    "RECORD SMILES": "COc1cc(/C=C2/Oc3cc4occc4c(OC)c3C2=O)ccc1OCC(=O)Nc1ccncc1",
    "CATEGORY LABEL": "inactive"
  }
]

---

test system: HT29 colon; assay: NCI-60 one-dose screen, 48 h; details: 10 µM unless noted
The panel holds about 83,000 compounds, 20% with a hit somewhere; the sample as a whole holds those more often. Active and inactive are the calls of the source. Rule for the calls: active = growth percent below 10; inactive = the rest.
Labels: Y for active, N for inactive

[
  {
    "RECORD SMILES": "Fc1ccc(Nc2ncnc3ccc(-c4cn[nH]c4)cc23)cc1Cl",
    "CATEGORY LABEL": "N"
  },
  {
    "RECORD SMILES": "O=C1COc2ccccc2C(=O)N1CCCCNc1ccccc1",
    "CATEGORY LABEL": "N"
  },
  {
    "RECORD SMILES": "COc1cc(-c2nc(N)n(CC(=O)Nc3ccc(/C(C)=N\\O)cc3)n2)cc(OC)c1OC",
    "CATEGORY LABEL": "N"
  },
  {
    "RECORD SMILES": "COc1ccc(NC(=O)COCCOCCNC[C@@H]2C(=O)O[C@H]3[C@H]2CC/C(COC(=O)OC/C2=C/CC[C@@]4(C)O[C@H]4[C@H]4OC(=O)[C@@H](CN(C)C)[C@@H]4CC2)=C\\CC[C@@]2(C)O[C@@H]32)c(O)c1C(N)=O",
    "CATEGORY LABEL": "N"
  },
  {
    "RECORD SMILES": "O=C(Nc1ccccc1F)Nc1ccccc1Cl",
    "CATEGORY LABEL": "N"
  },
  {
    "RECORD SMILES": "CCCCCCCCCCCCCCCC(=O)NS(=O)(=O)OC[C@H]1O[C@@H](n2cnc3c(N)ncnc32)[C@H](O)[C@@H]1O",
    "CATEGORY LABEL": "Y"
  },
  {
    "RECORD SMILES": "O=C1c2ccccc2C(=O)c2c(NCCN=Cc3c(O)ccc4ccccc34)cccc21",
    "CATEGORY LABEL": "N"
  }
]

---

test system: OVCAR-4 ovarian; assay: NCI-60 one-dose screen, 48 h; conditions: 10 µM unless noted
This is part of a sample that, as a whole, favours compounds with a hit. Of some 83,000 tested, about 20% had one in any assay. Calls of active or inactive are those of the source. How the source made its calls: active means growth percent below 10; inactive means the rest.
Outcomes: 1 (yes) for active, 0 (no) for inactive

[
  {
    "COMPOUND": "S=c1[nH]nc(Cn2c3ccccc3c3ccncc32)o1",
    "TARGET OR SYSTEM": "OVCAR-4 ovarian",
    "CATEGORY LABEL": "0 (no)"
  },
  {
    "COMPOUND": "O=C(NCCNc1nccc(-c2c(-c3cccc(O)c3)nc3sccn23)n1)c1cc(N2CCOCC2)cc(C(F)(F)F)c1",
    "TARGET OR SYSTEM": "OVCAR-4 ovarian",
    "CATEGORY LABEL": "0 (no)"
  },
  {
    "COMPOUND": "O=c1c2ccccc2sc2c(NCCCNCCO)nc3ccccc3c12",
    "TARGET OR SYSTEM": "OVCAR-4 ovarian",
    "CATEGORY LABEL": "0 (no)"
  },
  {
    "COMPOUND": "CCCCOc1c(N)cccc1C(=O)OCCN(CC)CC",
    "TARGET OR SYSTEM": "OVCAR-4 ovarian",
    "CATEGORY LABEL": "0 (no)"
  },
  {
    "COMPOUND": "Oc1ccc(Cl)cc1Sc1cc(Cl)ccc1O",
    "TARGET OR SYSTEM": "OVCAR-4 ovarian",
    "CATEGORY LABEL": "0 (no)"
  },
  {
    "COMPOUND": "Cc1c(NC(=O)c2sc3nc4c(cc3c2N)CN(Cc2ccccc2)CC4)cccc1C(F)(F)F",
    "TARGET OR SYSTEM": "OVCAR-4 ovarian",
    "CATEGORY LABEL": "0 (no)"
  },
  {
    "COMPOUND": "Fc1ccc(Nc2ncnc3ccc(-c4cn[nH]c4)cc23)cc1Cl",
    "TARGET OR SYSTEM": "OVCAR-4 ovarian",
    "CATEGORY LABEL": "0 (no)"
  },
  {
    "COMPOUND": "O=C(O)c1cccc(S(=O)(=O)c2ccccc2)c1",
    "TARGET OR SYSTEM": "OVCAR-4 ovarian",
    "CATEGORY LABEL": "0 (no)"
  },
  {
    "COMPOUND": "Oc1ccc(O)c(-[n+]2ccccc2)c1",
    "TARGET OR SYSTEM": "OVCAR-4 ovarian",
    "CATEGORY LABEL": "0 (no)"
  },
  {
    "COMPOUND": "CC12CCC3C(CCC4CC(O)CCC43C)C1C/C(=C/O)C(=O)O2 (stereo unspecified)",
    "TARGET OR SYSTEM": "OVCAR-4 ovarian",
    "CATEGORY LABEL": "0 (no)"
  },
  {
    "COMPOUND": "COc1cc(C(=O)NNC(=O)c2ccccc2C(=O)O)cc(OC)c1OC",
    "TARGET OR SYSTEM": "OVCAR-4 ovarian",
    "CATEGORY LABEL": "0 (no)"
  },
  {
    "COMPOUND": "C=CCOc1ccc(/C(Cl)=N/N=C(\\Cl)c2cc(OC)c(OC)c(OC)c2)cc1",
    "TARGET OR SYSTEM": "OVCAR-4 ovarian",
    "CATEGORY LABEL": "0 (no)"
  },
  {
    "COMPOUND": "CC(C)(C)OC(=O)N1CC(Cn2cc(C(F)(F)F)c3c(Cl)ncnc32)C1",
    "TARGET OR SYSTEM": "OVCAR-4 ovarian",
    "CATEGORY LABEL": "0 (no)"
  },
  {
    "COMPOUND": "CCN(CC)CCNc1ccc([N+](=O)[O-])c2sc3cc(Cl)ccc3c(=O)c12",
    "TARGET OR SYSTEM": "OVCAR-4 ovarian",
    "CATEGORY LABEL": "1 (yes)"
  },
  {
    "COMPOUND": "CC1(C)N=C(N)N=C(N)N1c1ccc(F)c(C(F)(F)F)c1",
    "TARGET OR SYSTEM": "OVCAR-4 ovarian",
    "CATEGORY LABEL": "0 (no)"
  },
  {
    "COMPOUND": "Cn1c(I)c(C#C[Si](C)(C)C)c(=O)[nH]c1=O",
    "TARGET OR SYSTEM": "OVCAR-4 ovarian",
    "CATEGORY LABEL": "1 (yes)"
  }
]
